system: 293T cells; test: Cell survival rate determination (CCK-8); assay type: cell-based; settings: LNP formulation of Fluc-mRNA, 24 hours, CCK-8
EXPERIMENTAL_ENDPOINT: Cell survival rate (%)
Dear colleague, please return just the value in %, with no unit written.

In the examples that follow, each entry is paired with its recorded Cell survival rate (%).
> print(dat)
                                   compound  quantitative.readout
1  CCCCCCCCC(CCCCCCCC)OC(=O)CCCCCCCN(CCO)CCCCCCCC(=O)OCCC(CCCCCC)CCCCCC [Compound 21, reference compound]                 70.21
2  CCCCCCCCCCCOC(=O)CCCCCN(CCCCCC(=O)OCCCCCCCCCCC)C[C@H](O)CN(C)CCO                 34.16
3  CCCCCCCCC(CCCCCCCC)COC(=O)CCCCCN(CCCCCC(=O)OCC(CCCCCCCC)CCCCCCCC)C[C@H](O)CN(CCO)CCO                 70.53
4  CCCCCCC(CCCCCC)CCOC(=O)CCCCCN(CCCCCC(=O)OCCC(CCCCCC)CCCCCC)C[C@H](O)CN(CC)CCO                 70.06
5  CCCCCCC(CCCCCC)CCOC(=O)CCCCCCCN(CCO)CCCCCCCC(=O)OCCC(CCCCCC)CCCCCC [Compound 23, reference compound]                 71.50

Prompt: I am curious: what Cell survival rate (%) value has been reported for CCCCCCCCCCOC(=O)CCCN(CCCCCC(=O)OCC(CCCCCCCC)CCCCCCCC)C[C@H](O)CN(CC)CCO ?
Completion: 70.99

Prompt: Check CCCCCCCCCCOC(=O)CCCN(CCCCCC(=O)OCCC(CCCCCC)CCCCCC)C[C@H](O)CN(CC)CCO too.
Completion: 31.61

Prompt: Check CCCCCCCCCCOC(=O)CCCN(CCCCCC(=O)OCCC(CCCCCC)CCCCCC)C[C@H](O)CN(C)CCO too.
Completion: 16.43

Prompt: Check CCCCCCCCC(CCCCCCCC)OC(=O)CCCCCN(CCCCCC(=O)OC(CCCCCCCC)CCCCCCCC)C[C@H](O)CN(CCO)CCO too.
Completion: 75.56

Prompt: Check CCCCCCCCCCCOC(=O)CCCCCN(CCCC(=O)OCCCC(CCCCCCCCCC)CCCCCCCCCC)C[C@H](O)CN(C)CCO too.
Completion: 82.18

* * *

tested on: 293T cells; test: Cell survival rate determination (CCK-8); type: cell-based; conditions: difference of survival rates; comparator YK-311
Below: a set of entries, each annotated with reported cell survival rate higher than YK-311.
Dear colleague, please return just the value in %, with no unit written.

In the examples that follow, each entry is paired with its recorded cell survival rate higher than YK-311.
> print(dat)
                              smiles.record  units.of.measure  quantitative.readout
1  CCCCCCC(CCCCCC)CCOC(=O)CCCCCCN(CCCCCCC(=O)OCCC(CCCCCC)CCCCCC)C[C@H](O)CN(CCO)CCO                 %                  5.15
2  CCCCCCCCC(CCCCCCCC)OC(=O)CCCCCN(CCCCCC(=O)OC(CCCCCCCC)CCCCCCCC)C[C@H](O)CN(CCO)CCO                 %                  5.50
3  CCCCCCCCC(CCCCCCCC)COC(=O)CCCCCN(CCCCCC(=O)OCC(CCCCCCCC)CCCCCCCC)C[C@H](O)CN(C)CCO                 %                 12.12

Prompt: I'm curious: which cell survival rate higher than YK-311 was measured for CCCCCCCCC(CCCCCCCC)COC(=O)CCCCCN(CCCCCC(=O)OCC(CCCCCCCC)CCCCCCCC)C[C@H](O)CN(CC)CCO tested on 293T cells?
Completion: 6.90

Prompt: Check CCCCCCCCCCCOC(=O)CCCCCN(CCCC(=O)OCCCC(CCCCCCCCCC)CCCCCCCCCC)C[C@H](O)CN(CC)CCO too.
Completion: 12.04

Hey, just so you know, these numbers are from patent US20260007613A1.
